All values here come from PubChem BioAssay AID1918943.

Measured viability, T/C by item
System: 855422-203-R-J1-PDC complex spheroid viability;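 further: drug exposure lasted 7 days starting on day 3 after seeding; luminescence viability as percent of DMSO vehicle wells = 100%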
Assay: Anticancer human tumor 855422-203-R-J1-PDC patient-derived bladder carcinoma cell line growth inhibition
Settings: second compound 0.316 µM; first compound 0.000949 µM; hits give low values
Respond with the bare value in %.

Q) Requested read-out: viability, T/C. Entry: Nc1ncn(C2CC(O)C(CO)S2)c(=O)n1 (stereo unspecified) + NC1CC1c1ccc(-c2cccc(O)c2)cc1
A) 87.7

***
Q) Requested read-out: viability, T/C. Entry: Nc1ncn(C2CC(O)C(CO)S2)c(=O)n1 (stereo unspecified) + NC1CCC(NC2CC2c2ccccc2)CC1
A) 95.5

Q) Do the same for Nc1ccn(C2OC(CO)C(O)C2(F)F)c(=O)n1 (stereo unspecified) + NC1CCC(NC2CC2c2ccccc2)CC1 please
A) 86.6

Q) Do the same for CCc1c2c(nc3ccc(O)cc13)-c1cc3c(c(=O)n1C2)COC(=O)[C@]3(O)CC + NC1CC1c1ccc(-c2cccc(O)c2)cc1 please
A) 17.1

Q) Do the same for Nc1ccn(C2OC(CO)C(O)C2(F)F)c(=O)n1 (stereo unspecified) + NC1CC1c1ccc(-c2cccc(O)c2)cc1 please
A) 86.9

Q) Do the same for CCc1c2c(nc3ccc(O)cc13)-c1cc3c(c(=O)n1C2)COC(=O)[C@]3(O)CC + NC1CCC(NC2CC2c2ccccc2)CC1 please
A) 22.6
